Attribute: koff
Biological target: T1, canine FcRn (canine)
T1 construct: Injected in solution as SPR analyte
Assay: SPR, pH 5.5, FcRn 100-800 nM over captured Fc
test readout: koff (s⁻¹)

# binder, test readout, reported value
rows = [
    ("canine IgG.B Fc variant N434H with SASA tag (Fc fusion) APEMLGGPSVFIFPPKPKDTLLIARTPEVTCVVVDLDPEDPEVQISWFVDGKQMQTAKTQPREEQFNGTYRVVSVLPIGHQDWLKGKQFTCKVNNKALPSPIERTISKARGQAHQPSVYVLPPSREELSKNTVSLTCLIKDFFPPDIDVEWQSNGQQEPESKYRTTPPQLDEDGSYFLYSKLSVDKSRWQRGDTFICAVMHEALHHHYTQESLSHSPGK", "koff", 0.102),
    ("wild-type canine IgG.B Fc (CH2 and CH3 domains) with upstream SASA tag (Fc fusion) APEMLGGPSVFIFPPKPKDTLLIARTPEVTCVVVDLDPEDPEVQISWFVDGKQMQTAKTQPREEQFNGTYRVVSVLPIGHQDWLKGKQFTCKVNNKALPSPIERTISKARGQAHQPSVYVLPPSREELSKNTVSLTCLIKDFFPPDIDVEWQSNGQQEPESKYRTTPPQLDEDGSYFLYSKLSVDKSRWQRGDTFICAVMHEALHNHYTQESLSHSPGK", "koff", 0.527),
    ("canine IgG.B Fc variant N434R with SASA tag (Fc fusion) APEMLGGPSVFIFPPKPKDTLLIARTPEVTCVVVDLDPEDPEVQISWFVDGKQMQTAKTQPREEQFNGTYRVVSVLPIGHQDWLKGKQFTCKVNNKALPSPIERTISKARGQAHQPSVYVLPPSREELSKNTVSLTCLIKDFFPPDIDVEWQSNGQQEPESKYRTTPPQLDEDGSYFLYSKLSVDKSRWQRGDTFICAVMHEALHRHYTQESLSHSPGK", "koff", 0.0801),
    ("canine IgG.B Fc YTE variant (L252Y/A254T/T256E) with SASA tag (Fc fusion) APEMLGGPSVFIFPPKPKDTLYITREPEVTCVVVDLDPEDPEVQISWFVDGKQMQTAKTQPREEQFNGTYRVVSVLPIGHQDWLKGKQFTCKVNNKALPSPIERTISKARGQAHQPSVYVLPPSREELSKNTVSLTCLIKDFFPPDIDVEWQSNGQQEPESKYRTTPPQLDEDGSYFLYSKLSVDKSRWQRGDTFICAVMHEALHNHYTQESLSHSPGK", "koff", 0.046),
    ("canine IgG.B Fc variant N434Y with SASA tag (Fc fusion) APEMLGGPSVFIFPPKPKDTLLIARTPEVTCVVVDLDPEDPEVQISWFVDGKQMQTAKTQPREEQFNGTYRVVSVLPIGHQDWLKGKQFTCKVNNKALPSPIERTISKARGQAHQPSVYVLPPSREELSKNTVSLTCLIKDFFPPDIDVEWQSNGQQEPESKYRTTPPQLDEDGSYFLYSKLSVDKSRWQRGDTFICAVMHEALHYHYTQESLSHSPGK", "koff", 0.0151),
    ("canine IgG.B Fc variant N434W with SASA tag (Fc fusion) APEMLGGPSVFIFPPKPKDTLLIARTPEVTCVVVDLDPEDPEVQISWFVDGKQMQTAKTQPREEQFNGTYRVVSVLPIGHQDWLKGKQFTCKVNNKALPSPIERTISKARGQAHQPSVYVLPPSREELSKNTVSLTCLIKDFFPPDIDVEWQSNGQQEPESKYRTTPPQLDEDGSYFLYSKLSVDKSRWQRGDTFICAVMHEALHWHYTQESLSHSPGK", "koff", 0.045),
    ("canine IgG.B Fc variant L252Y with SASA tag (Fc fusion) APEMLGGPSVFIFPPKPKDTLYIARTPEVTCVVVDLDPEDPEVQISWFVDGKQMQTAKTQPREEQFNGTYRVVSVLPIGHQDWLKGKQFTCKVNNKALPSPIERTISKARGQAHQPSVYVLPPSREELSKNTVSLTCLIKDFFPPDIDVEWQSNGQQEPESKYRTTPPQLDEDGSYFLYSKLSVDKSRWQRGDTFICAVMHEALHNHYTQESLSHSPGK", "koff", 0.0476),
]
